We begin with a simple list: items and their reported logP.

{"Structure As Smiles": "Cc1ccc2cccc([N+](=O)[O-])c2n1", "logP": 1.99}
{"Structure As Smiles": "Nc1ccc2c3c(cccc13)-c1ccccc1-2", "logP": 4.2}
{"Structure As Smiles": "O=[N+]([O-])c1ccc2ccccc2c1", "logP": 3.24}
{"Structure As Smiles": "Nc1ccc(Cl)cc1[N+](=O)[O-]", "logP": 2.72}
{"Structure As Smiles": "O=C1Nc2ccc([N+](=O)[O-])cc2C1=O", "logP": 0.47}
{"Structure As Smiles": "O=[N+]([O-])c1cccc2cccc([N+](=O)[O-])c12", "logP": 2.52}
{"Structure As Smiles": "Nc1cccc2cc3ccccc3cc12", "logP": 3.69}
{"Structure As Smiles": "Nc1ccc2c(c1)Cc1ccccc1-2", "logP": 3.14}
{"Structure As Smiles": "Nc1cc(Cl)ccc1O", "logP": 1.81}
{"Structure As Smiles": "Nc1cccc2c1Cc1ccccc1-2", "logP": 3.18}
{"Structure As Smiles": "Cc1ccc(N)c(N)c1", "logP": 0.66}
{"Structure As Smiles": "Nc1ccccc1-c1ccccc1N", "logP": 1.34}
{"Structure As Smiles": "Nc1ccc(Oc2ccccc2)cc1", "logP": 2.96}
{"Structure As Smiles": "Nc1cc2ccccc2c2ccccc12", "logP": 3.56}
{"Structure As Smiles": "Nc1cccc(C(F)(F)F)c1", "logP": 2.29}
{"Structure As Smiles": "COc1ccc(N)c(C)c1", "logP": 1.23}
{"Structure As Smiles": "Nc1ccc2ccc3cccc4ccc1c2c34", "logP": 4.31}
{"Structure As Smiles": "O=[N+]([O-])c1ccc2c3c(cccc13)CC2", "logP": 3.85}
{"Structure As Smiles": "COc1cc(-c2ccc(N)c(OC)c2)ccc1N", "logP": 1.81}
{"Structure As Smiles": "Cc1ccc(C)c(N)c1", "logP": 1.83}
{"Structure As Smiles": "O=[N+]([O-])c1cccc2c([N+](=O)[O-])cccc12", "logP": 2.58}
{"Structure As Smiles": "Cc1ccc(N)cc1N", "logP": 0.14}
{"Structure As Smiles": "O=[N+]([O-])c1cc([N+](=O)[O-])c2ccccc2c1", "logP": 2.83}
{"Structure As Smiles": "Cc1ccc(O)c(N)c1", "logP": 1.16}

Data provenance: the OPERA property sets (Mansouri et al. 2018)
